Origin of the recorded values: patent US12209087B2

biological target: full length AKT E17K (Homo sapiens, UniProt P31749, E17K); construct: host or cells: HEK-293 (ATCC CRL-1573); experiment: NanoBRET Target Engagement (TE) Assay; format: cell-based; conditions: competitive displacement of tracer in cells, read-out: AKT1 E17K IC50
Sequence (P31749 whole entry E17K): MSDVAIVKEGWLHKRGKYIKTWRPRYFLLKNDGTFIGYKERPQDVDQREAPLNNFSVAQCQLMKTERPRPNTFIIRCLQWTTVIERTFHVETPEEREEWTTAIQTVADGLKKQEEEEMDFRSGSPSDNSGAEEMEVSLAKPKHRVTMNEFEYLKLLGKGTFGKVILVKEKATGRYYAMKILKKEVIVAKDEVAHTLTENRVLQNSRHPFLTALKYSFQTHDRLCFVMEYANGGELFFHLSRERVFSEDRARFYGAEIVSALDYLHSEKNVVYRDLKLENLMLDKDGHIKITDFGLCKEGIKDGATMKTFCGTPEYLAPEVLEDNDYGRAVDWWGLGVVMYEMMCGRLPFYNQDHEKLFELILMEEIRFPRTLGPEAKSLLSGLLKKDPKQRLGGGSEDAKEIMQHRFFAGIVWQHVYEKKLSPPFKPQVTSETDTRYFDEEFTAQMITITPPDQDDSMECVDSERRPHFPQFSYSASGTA
pIC50: −log10 of the molar value.
Examples of molecules with documented pIC50 follow.

// solved cases for pIC50 follow
{"mol_smiles": "N#Cc1ccc(-c2ccc3nc(-c4cccnc4N)n(-c4ccc(CN5CCC(Nc6ccnc(C#N)n6)CC5)cc4)c3n2)cc1", "pIC50": "> 7.82"}
{"mol_smiles": "N#Cc1nccc(NC2CCN(Cc3ccc(-n4c(-c5cccnc5N)nc5ccc(-c6ccnc(F)c6)nc54)cc3)CC2)n1", "pIC50": "> 7.82"}
{"mol_smiles": "N#Cc1nccc(NC2CCN(Cc3ccc(-n4c(-c5cccnc5N)nc5ccc(-c6ccc(CF)cn6)nc54)cc3)CC2)n1", "pIC50": "> 7.82"}

Short answer for Cn1cc(-c2ccc3nc(-c4cccnc4N)n(-c4ccc(CN5CCC(Nc6nccc(C#N)n6)CC5)cc4)c3n2)ccc1=O : pIC50 was 6.22 to 7.22

Short answer for CN(C)c1cccc(-c2ccc3nc(-c4cccnc4N)n(-c4ccc(CN5CCC(Nc6ccnc(C#N)n6)CC5)cc4)c3n2)c1 : pIC50 was > 7.82

Short answer for N#Cc1ncnc(NC2CCN(Cc3ccc(-n4c(-c5cccnc5N)nc5ccc(-c6ccc(Cl)cc6)nc54)cc3)CC2)n1 : pIC50 was 7.22 to 7.82

Short answer for CC(C)n1ncc(-c2ccc3nc(-c4cccnc4N)n(-c4ccc(CN5CCC(Nc6ccnc(C#N)n6)CC5)cc4)c3n2)n1 : pIC50 was > 7.82

Short answer for N#Cc1nccc(NC2CCN(Cc3ccc(-n4c(-c5cccnc5N)nc5ccc(-c6cccnc6)nc54)cc3)CC2)n1 : pIC50 was > 7.82

Short answer for N#Cc1nccc(NC2CCN(Cc3ccc(-n4c(-c5cccnc5N)nc5ccc(N6CCOC6=O)nc54)cc3)CC2)n1 : pIC50 was > 7.82

Short answer for Cc1noc(C)c1-c1ccc2nc(-c3cccnc3N)n(-c3ccc(CN4CCC(Nc5ccnc(C#N)n5)CC4)cc3)c2n1 : pIC50 was > 7.82

Short answer for N#Cc1nccc(N2CC3(CN(Cc4ccc(-n5c(-c6cccnc6N)nc6ccc(-c7ccccc7)nc65)cc4)C3)C2)n1 : pIC50 was > 7.82

Short answer for Cc1nncn1-c1ccc2nc(-c3cccnc3N)n(-c3ccc(CN4CCC(Nc5ccnc(C#N)n5)CC4)cc3)c2n1 : pIC50 was 7.22 to 7.82

Short answer for N#Cc1ncnc(N2CCC3(CCN(Cc4ccc(-n5c(-c6cccnc6N)nc6ccc(-c7ccccc7)nc65)cc4)CC3)C2)n1 : pIC50 was 7.22 to 7.82

Short answer for [2H]C([2H])(c1ccc(-n2c(-c3cccnc3N)nc3ccc(-c4ccc(F)cc4)nc32)cc1)N1CCC(N(C)c2ccnc(C#N)n2)CC1 : pIC50 was > 7.82
